Where do these numbers come from? They come from patent EP3154958B1.

Catalogue of log10(IC50) values
- TESTED_SYSTEM: PI3Kδ (Homo sapiens, UniProt O00329)
- Construct: made in house
- Sequence (O00329 whole entry): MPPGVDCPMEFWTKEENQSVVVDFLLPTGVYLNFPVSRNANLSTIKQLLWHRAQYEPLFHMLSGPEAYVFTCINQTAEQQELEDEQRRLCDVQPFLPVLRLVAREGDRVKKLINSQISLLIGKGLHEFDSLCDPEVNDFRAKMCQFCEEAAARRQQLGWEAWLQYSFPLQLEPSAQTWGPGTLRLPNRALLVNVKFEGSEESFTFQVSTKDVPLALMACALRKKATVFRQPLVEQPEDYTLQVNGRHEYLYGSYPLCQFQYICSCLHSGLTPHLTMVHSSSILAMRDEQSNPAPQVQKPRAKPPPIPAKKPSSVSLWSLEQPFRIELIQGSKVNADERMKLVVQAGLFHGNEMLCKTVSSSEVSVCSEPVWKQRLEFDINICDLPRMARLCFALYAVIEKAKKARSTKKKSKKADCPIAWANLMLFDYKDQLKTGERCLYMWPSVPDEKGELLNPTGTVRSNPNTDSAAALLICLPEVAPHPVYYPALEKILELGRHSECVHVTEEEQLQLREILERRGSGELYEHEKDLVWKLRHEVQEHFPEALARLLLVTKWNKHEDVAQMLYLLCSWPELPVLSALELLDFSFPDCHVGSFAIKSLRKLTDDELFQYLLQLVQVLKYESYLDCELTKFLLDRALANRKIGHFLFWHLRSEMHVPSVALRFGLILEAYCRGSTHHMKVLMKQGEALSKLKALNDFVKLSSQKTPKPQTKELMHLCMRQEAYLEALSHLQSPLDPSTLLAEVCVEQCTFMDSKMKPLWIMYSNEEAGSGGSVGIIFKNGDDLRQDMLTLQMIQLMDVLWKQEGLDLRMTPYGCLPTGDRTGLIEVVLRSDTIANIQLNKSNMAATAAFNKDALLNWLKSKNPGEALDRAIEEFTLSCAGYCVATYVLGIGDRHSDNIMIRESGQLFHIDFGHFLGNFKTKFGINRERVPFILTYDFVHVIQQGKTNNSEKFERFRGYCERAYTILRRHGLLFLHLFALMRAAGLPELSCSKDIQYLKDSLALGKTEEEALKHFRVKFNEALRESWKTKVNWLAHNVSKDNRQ
- Sequence (P27986 whole entry partner): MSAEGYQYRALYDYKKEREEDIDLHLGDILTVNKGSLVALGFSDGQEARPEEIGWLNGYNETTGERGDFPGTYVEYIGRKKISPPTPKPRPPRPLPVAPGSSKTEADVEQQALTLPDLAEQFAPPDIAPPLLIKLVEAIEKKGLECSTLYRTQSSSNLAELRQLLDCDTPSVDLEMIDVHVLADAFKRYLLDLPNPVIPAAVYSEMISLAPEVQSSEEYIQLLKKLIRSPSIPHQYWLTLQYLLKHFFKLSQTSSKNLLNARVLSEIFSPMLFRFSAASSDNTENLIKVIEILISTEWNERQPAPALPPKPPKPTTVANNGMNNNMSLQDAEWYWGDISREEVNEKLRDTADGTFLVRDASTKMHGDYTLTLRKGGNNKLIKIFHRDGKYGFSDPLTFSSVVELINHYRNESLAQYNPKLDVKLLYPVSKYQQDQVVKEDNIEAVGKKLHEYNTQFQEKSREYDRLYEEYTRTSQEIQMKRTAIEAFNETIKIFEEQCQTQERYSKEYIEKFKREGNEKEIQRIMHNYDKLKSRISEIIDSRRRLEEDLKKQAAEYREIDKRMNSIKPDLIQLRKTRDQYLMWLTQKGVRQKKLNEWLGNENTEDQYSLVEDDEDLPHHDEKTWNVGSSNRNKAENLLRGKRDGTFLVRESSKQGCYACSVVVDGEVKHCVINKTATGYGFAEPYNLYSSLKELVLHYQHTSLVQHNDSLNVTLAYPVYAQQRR
- METHOD_DESCRIPTION: TR-FRET enzymatic activity assay, PI3Kδ
- Format: biochemical
- STATED_CONDITIONS: recombinant heterodimeric PI3Kδ 25-50 pM, 2× Km ATP, 30 minutes at 25°C
OBSERVATION_TYPE: log10(IC50) (log10 of the value in nM)

[
  {
    "COMPOUND": "C[C@H](Nc1nc(N)nc(N)c1Cl)c1nc2c(F)ccc(Cl)c2c(=O)n1N1CCN(Cc2ccccc2)CC1 [Compound 117]",
    "OBSERVATION_TYPE": "log10(IC50)",
    "VAL": 2.34
  },
  {
    "COMPOUND": "C[C@H](Nc1ncnc(N)c1C#N)c1nc2cccc(Cl)c2c(=O)n1C1CCCNCC1 (stereo partly drawn) [Compound 84]",
    "OBSERVATION_TYPE": "log10(IC50)",
    "VAL": 0.30
  },
  {
    "COMPOUND": "C[C@H](Nc1nc(N)nc(N)c1Cl)c1nc2cccc(Cl)c2c(=O)n1[C@@H]1CCCNCC1 [Compound 13]",
    "OBSERVATION_TYPE": "log10(IC50)",
    "VAL": 1.52
  },
  {
    "COMPOUND": "C[C@H](Nc1nc(N)nc(N)c1Cl)c1nc2c(F)ccc(Cl)c2c(=O)n1N1CCNCC1 [Compound 20]",
    "OBSERVATION_TYPE": "log10(IC50)",
    "VAL": 1.30
  },
  {
    "COMPOUND": "C[C@H](Nc1ncnc2cccnc12)c1nc2cccc(Cl)c2c(=O)n1N1CCNCC1 [Compound 73]",
    "OBSERVATION_TYPE": "log10(IC50)",
    "VAL": 0.90
  },
  {
    "COMPOUND": "C[C@H](Nc1ncnc2scnc12)c1nc2c(F)ccc(Cl)c2c(=O)n1N1CCNCC1 [Compound 50]",
    "OBSERVATION_TYPE": "log10(IC50)",
    "VAL": 0.30
  },
  {
    "COMPOUND": "C[C@H](Nc1nc(N)nc(N)c1C#N)c1nc2cccc(Cl)c2c(=O)n1[C@H]1CCCNCC1 [Compound 8]",
    "OBSERVATION_TYPE": "log10(IC50)",
    "VAL": 0.30
  },
  {
    "COMPOUND": "C[C@H](Nc1ncnc(N)c1C#N)c1nc2cccc(Cl)c2c(=O)n1N1CCNC2(CC2)C1 [Compound 63]",
    "OBSERVATION_TYPE": "log10(IC50)",
    "VAL": 0.30
  },
  {
    "COMPOUND": "Cc1nc(N)nc(N[C@H](c2nc3cccc(Cl)c3c(=O)n2N2CCNCC2)C2CC2)c1C#N [Compound 46]",
    "OBSERVATION_TYPE": "log10(IC50)",
    "VAL": 0.00
  },
  {
    "COMPOUND": "CC[C@H](Nc1ncnn2ccnc12)c1nc2cccc(Cl)c2c(=O)n1N1CCNCC1 [Compound 42]",
    "OBSERVATION_TYPE": "log10(IC50)",
    "VAL": 0.90
  },
  {
    "COMPOUND": "C[C@H](Nc1nc(N)nc(N)c1C#N)c1nc2cccc(Cl)c2c(=O)n1[C@@H]1CCOC1 [Compound 137]",
    "OBSERVATION_TYPE": "log10(IC50)",
    "VAL": 0.70
  },
  {
    "COMPOUND": "C[C@H](Nc1ncnc(N)c1C#Cc1ccc(F)cn1)c1nc2cccc(Cl)c2c(=O)n1N1CCNCC1 [Compound 58]",
    "OBSERVATION_TYPE": "log10(IC50)",
    "VAL": 0.30
  },
  {
    "COMPOUND": "Cc1nc(N)nc(N[C@@H](C)c2nc3c(F)ccc(Cl)c3c(=O)n2C2[C@H]3CNC[C@@H]23)c1C#N (stereo in doubt) [Compound 16]",
    "OBSERVATION_TYPE": "log10(IC50)",
    "VAL": 0.78
  },
  {
    "COMPOUND": "C[C@H](Nc1ncnc2scnc12)c1nc2c(Cl)ccc(Cl)c2c(=O)n1N1CCNCC1 [Compound 49]",
    "OBSERVATION_TYPE": "log10(IC50)",
    "VAL": 0.30
  },
  {
    "COMPOUND": "C[C@H](Nc1nc(N)nc(N)c1C#N)c1nc2cccc(Cl)c2c(=O)n1[C@@H]1CCCNCC1 [Compound 9]",
    "OBSERVATION_TYPE": "log10(IC50)",
    "VAL": 0.30
  },
  {
    "COMPOUND": "C[C@H](Nc1ncnc2cccnc12)c1nc2cccc(Cl)c2c(=O)n1C1CCCNCC1 (stereo partly drawn) [Compound 81]",
    "OBSERVATION_TYPE": "log10(IC50)",
    "VAL": 1.54
  },
  {
    "COMPOUND": "C[C@H](Nc1nc(N)nc(N)c1C#N)c1nc2cccc(Cl)c2c(=O)n1N1CCN(CCOC(C)(C)C)CC1 [Compound 96]",
    "OBSERVATION_TYPE": "log10(IC50)",
    "VAL": 1.18
  },
  {
    "COMPOUND": "N#Cc1c(N)nc(N)nc1N[C@H](c1nc2c(F)ccc(F)c2c(=O)n1N1CCNCC1)C1CC1 [Compound 127]",
    "OBSERVATION_TYPE": "log10(IC50)",
    "VAL": 1.11
  }
]
